- Tested on: CAKI-1 renal
- assayProtocol: NCI tumour cell line growth inhibition, 48 h
Please respond with reported TGI for every item in the list.

Study these solved cases before continuing.
{"compound": "O=C1CC2C(=O)N(Cc3ccccc3)C1C(S(=O)(=O)c1ccccc1)C2S(=O)(=O)c1ccccc1 (stereo unspecified)", "TGI": "1.85 µM"}
{"compound": "O=C1C(N=Nc2ccc(-c3nc4ccccc4o3)cc2)NC(=S)N1c1ccccc1 (stereo unspecified)", "TGI": "> 100 µM"}
{"compound": "Cc1c(C)c2ccc(OC/C=C3\\CCC(=O)O3)cc2oc1=O", "TGI": "30.6 µM"}
{"compound": "COC(=O)[C@@H]1CCCN1C(=O)[C@@H]1CCCN1C(=O)[C@@H](Cc1c[nH]c2ccccc12)NC(=S)Nc1cc(C(F)(F)F)cc(C(F)(F)F)c1", "TGI": "> 100 µM"}

// input: 3 compounds below; output: TGI for each
1. CC(=O)Oc1ccccc1C(=O)C1c2cccc(O)c2C(=O)c2c(O)cccc21
2. CN(C)C(=C1c2cc([N+](=O)[O-])ccc2-c2ccc([N+](=O)[O-])cc21)N(C)C
3. COc1ccc(/C=C2\CCCC3=C2NC(C)=NC3c2ccc(OC)c(OC)c2)cc1OC (stereo unspecified)

[reply]
5.39 µM
> 100 µM
> 100 µM

// input: 6 compounds below; output: TGI for each
1. O=[N+]([O-])c1ccc(N=NN2CCCC2)cc1
2. CO[C@@H](c1ccccc1)[C@H](O)[C@](O)(c1ccccc1)P(=O)(OC)OC
3. C/C(=N\NC(N)=O)C(CN(C)C)C(c1ccccc1)c1c(O)c2ccccc2oc1=O (stereo unspecified)
4. COc1ccc(C2NC3=C(CCCC3)C3(C#N)C(=O)N=C(N)C23C#N)cc1 (stereo unspecified)
5. COc1cc2c(c(OC)c1OC)C(=O)[C@H]1OC(=O)N[C@@H]21
6. CCN1C(=O)C(=Cc2ccc(-c3ccccc3)cc2)C(=O)N(CC)C1=S

[reply]
1. > 100 µM
2. > 100 µM
3. > 100 µM
4. > 100 µM
5. > 100 µM
6. > 100 µM

// input: 5 compounds below; output: TGI for each
1. CCCCCCCC(=O)N/N=C/c1ccc(Sc2nccn2C)c([N+](=O)[O-])c1
2. O=C1C(=O)N(C2CCCCC2)C(=S)N1C1CCCCC1
3. COC1OC(COC(=O)NCCCCC(=O)C(F)(F)F)C(O)C(O)C1O (stereo unspecified)
4. NC1=Nc2ccccc2Sc2nnc(-c3ccc(Cl)cc3)n21
5. Cc1cccc(Nc2cn(CCOc3ccccc3)c(=O)n(CCOc3ccccc3)c2=O)c1

[reply]
72.1 µM
> 100 µM
> 100 µM
> 100 µM
> 100 µM

// input: 3 compounds below; output: TGI for each
1. N/N=C(\Cc1ccccc1)NN=C(N)N
2. COc1ccc(-c2c(C#N)c(S)n(C3OC(CO)C(O)C(O)C3O)c(=O)c2C#N)cc1 (stereo unspecified)
3. CC1=NN(C(=O)c2ccc(Cl)cc2)C(=O)/C1=C/c1cccc([N+](=O)[O-])c1

[reply]
["> 100 µM", "> 100 µM", "> 100 µM"]
